Origin of values: patent US20240376200A1

- TARGET ENTITY: Antigen 1 (Ab1 target) expressed on HEK293 / HEK-293F cells
- Sequence (P06756 31-1048, chain 1 of 2): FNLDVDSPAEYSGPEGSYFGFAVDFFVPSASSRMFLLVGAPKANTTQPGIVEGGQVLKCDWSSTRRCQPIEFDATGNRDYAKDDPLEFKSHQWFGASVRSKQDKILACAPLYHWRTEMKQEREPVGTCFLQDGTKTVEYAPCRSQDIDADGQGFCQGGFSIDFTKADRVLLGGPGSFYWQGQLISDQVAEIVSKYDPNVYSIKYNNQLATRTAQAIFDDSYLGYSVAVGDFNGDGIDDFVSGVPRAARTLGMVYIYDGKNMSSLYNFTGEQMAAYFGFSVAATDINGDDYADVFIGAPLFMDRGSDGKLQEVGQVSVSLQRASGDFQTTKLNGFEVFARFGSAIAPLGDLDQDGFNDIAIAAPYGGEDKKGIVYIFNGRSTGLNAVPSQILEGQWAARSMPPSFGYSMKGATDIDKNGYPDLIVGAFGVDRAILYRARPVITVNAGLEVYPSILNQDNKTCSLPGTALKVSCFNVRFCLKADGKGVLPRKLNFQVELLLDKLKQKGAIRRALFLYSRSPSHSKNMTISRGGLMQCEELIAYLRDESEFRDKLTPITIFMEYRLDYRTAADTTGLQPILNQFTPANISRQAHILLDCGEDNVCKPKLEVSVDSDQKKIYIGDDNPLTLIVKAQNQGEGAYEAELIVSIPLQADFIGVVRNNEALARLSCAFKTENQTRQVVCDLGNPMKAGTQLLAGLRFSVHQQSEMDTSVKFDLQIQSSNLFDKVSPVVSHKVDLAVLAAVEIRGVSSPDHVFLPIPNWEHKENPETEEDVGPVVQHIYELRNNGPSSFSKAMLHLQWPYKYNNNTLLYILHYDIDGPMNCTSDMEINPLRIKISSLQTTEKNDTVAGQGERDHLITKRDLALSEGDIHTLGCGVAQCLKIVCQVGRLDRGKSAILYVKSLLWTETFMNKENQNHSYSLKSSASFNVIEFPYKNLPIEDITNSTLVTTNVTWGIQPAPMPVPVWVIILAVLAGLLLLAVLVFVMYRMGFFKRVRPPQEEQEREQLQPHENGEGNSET
- Sequence (P18564 22-788, chain 2 of 2, further chain): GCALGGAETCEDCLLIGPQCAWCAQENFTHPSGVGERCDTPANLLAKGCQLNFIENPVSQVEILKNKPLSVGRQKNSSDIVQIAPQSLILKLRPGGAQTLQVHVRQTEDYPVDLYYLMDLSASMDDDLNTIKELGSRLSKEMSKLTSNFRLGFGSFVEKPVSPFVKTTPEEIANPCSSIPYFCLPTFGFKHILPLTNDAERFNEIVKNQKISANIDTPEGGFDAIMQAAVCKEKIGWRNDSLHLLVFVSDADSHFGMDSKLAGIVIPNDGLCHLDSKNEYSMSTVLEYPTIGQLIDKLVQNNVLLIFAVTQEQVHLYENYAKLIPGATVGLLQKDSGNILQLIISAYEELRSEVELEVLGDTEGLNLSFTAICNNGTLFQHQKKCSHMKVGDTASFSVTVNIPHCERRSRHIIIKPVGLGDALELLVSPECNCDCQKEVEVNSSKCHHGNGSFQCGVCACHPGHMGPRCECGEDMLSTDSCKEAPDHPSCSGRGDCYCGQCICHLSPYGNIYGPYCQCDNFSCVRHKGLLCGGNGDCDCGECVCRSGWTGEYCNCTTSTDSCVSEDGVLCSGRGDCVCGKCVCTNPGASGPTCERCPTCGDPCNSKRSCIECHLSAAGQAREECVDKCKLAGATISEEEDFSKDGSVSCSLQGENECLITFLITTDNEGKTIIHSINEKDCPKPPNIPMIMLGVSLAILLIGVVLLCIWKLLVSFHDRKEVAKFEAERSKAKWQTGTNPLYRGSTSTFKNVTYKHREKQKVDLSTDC
- MEASUREMENT NOTES: saturation binding FACS, HEK293 cells
The binders listed here are annotated with their EC50.
Write the answer as a number in nM, unit excluded.

Vel-IPV-Ab1 Coil 114 (antibody, part only; not given: Ab1 heavy and light chains, part only) heavy, part: QGASTSVDELQAEVDQLEDENYAWKTKVAQLRKKVEKLGSIPVSLRSG light, part: QGASTTVAQLEEKVKTLRAENYEFKSEVQRLEEQVAQLGSIPVSLRSG = 59.3
Vel-IPV-Ab1 Coil 115 (antibody, part only; not given: Ab1 heavy and light chains, part only) heavy, part: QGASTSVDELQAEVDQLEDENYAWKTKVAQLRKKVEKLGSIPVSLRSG light, part: QGASTTVAQLEEKVKTLRAENYEYKSEVQRLEEQVAQLGSIPVSLRSG = 152
Vel-IPV-Ab1 Coil 106 (antibody, part only; not given: Ab1 heavy and light chains, part only) heavy, part: QGASTSVDELQAEVDQLEDENYAYKTKVAQLRKKVEKLGSIPVSLRSG light, part: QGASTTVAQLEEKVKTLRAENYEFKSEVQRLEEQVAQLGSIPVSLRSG = 38.4
Vel-IPV-Ab1 Coil 122 (antibody, part only; not given: Ab1 heavy and light chains, part only) heavy, part: QGASTSVDELQAEVDQLEDENYAYKTKVAQLRKKVEKLGSIPVSLRSG light, part: QGASTTVAQLEEKVKTLRAENYEAKSEVQRLEEQVAQLGSIPVSLRSG = 14.5
Vel-IPV-Ab1 Coil 107 (antibody, part only; not given: Ab1 heavy and light chains, part only) heavy, part: QGASTSVDELQAEVDQLEDENYASKTKVAQLRKKVEKLGSIPVSLRSG light, part: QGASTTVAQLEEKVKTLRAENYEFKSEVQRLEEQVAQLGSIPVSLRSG = 2.8

[ask] Record request: EC50 value, item Vel-IPV-Ab1 Coil 117 (antibody, part only; not given: Ab1 heavy and light chains, part only) heavy, part: QGASTSVDELQAEVDQLEDENYAFKTKVAQLRKKVEKLGSIPVSLRSG light, part: QGASTTVAQLEEKVKTLRAENYEWKSEVQRLEEQVAQLGSIPVSLRSG
[reply] 144

[ask] Would you mind doing Vel-IPV-Ab1 Coil 111 (antibody, part only; not given: Ab1 heavy and light chains, part only) heavy, part: QGASTSVDELQAEVDQLEDENYAGKTKVAQLRKKVEKLGSIPVSLRSG light, part: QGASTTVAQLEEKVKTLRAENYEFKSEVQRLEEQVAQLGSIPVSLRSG as well?
[reply] 9.1

[ask] One more binder: Vel-IPV-Ab1 Coil 118 (antibody, part only; not given: Ab1 heavy and light chains, part only) heavy, part: QGASTSVDELQAEVDQLEDENYAFKTKVAQLRKKVEKLGSIPVSLRSG light, part: QGASTTVAQLEEKVKTLRAENYESKSEVQRLEEQVAQLGSIPVSLRSG
[reply] 16.8

[ask] Subsequent entry: Vel-IPV-Ab1 Coil 103 (antibody, part only; not given: Ab1 heavy and light chains, part only) heavy, part: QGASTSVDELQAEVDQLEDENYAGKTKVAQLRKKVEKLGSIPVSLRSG light, part: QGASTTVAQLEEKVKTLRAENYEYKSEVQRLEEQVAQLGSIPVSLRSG
[reply] 2.1

[ask] Same read-out for Vel-IPV-Ab1 Coil 110 (antibody, part only; not given: Ab1 heavy and light chains, part only) heavy, part: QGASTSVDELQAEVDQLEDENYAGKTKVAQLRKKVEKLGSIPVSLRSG light, part: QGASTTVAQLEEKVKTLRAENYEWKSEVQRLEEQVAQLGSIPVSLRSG ?
[reply] 42.9

[ask] What do you have for Vel-IPV-Ab1 Coil 121 (antibody, part only; not given: Ab1 heavy and light chains, part only) heavy, part: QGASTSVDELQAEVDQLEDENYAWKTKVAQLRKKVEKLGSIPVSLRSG light, part: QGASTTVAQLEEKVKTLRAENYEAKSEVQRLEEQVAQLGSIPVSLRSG ?
[reply] 132

[ask] Item: Vel-IPV-Ab1 Coil 126 (antibody, part only; not given: Ab1 heavy and light chains, part only) heavy, part: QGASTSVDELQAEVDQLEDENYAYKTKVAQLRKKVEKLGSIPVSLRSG light, part: QGASTTVAQLEEKVKTLRAENYESKSEVQRLEEQVAQLGSIPVSLRSG
[reply] 9.5
